I'd appreciate it if you could supply IC50 values for the items below.
Target: recombinant human serotonin receptor 5-HT2A (Homo sapiens, UniProt P28223)
Construct: expressed in transfected cells; method B: loaded with Ca2+ dye
Sequence (P28223 whole entry): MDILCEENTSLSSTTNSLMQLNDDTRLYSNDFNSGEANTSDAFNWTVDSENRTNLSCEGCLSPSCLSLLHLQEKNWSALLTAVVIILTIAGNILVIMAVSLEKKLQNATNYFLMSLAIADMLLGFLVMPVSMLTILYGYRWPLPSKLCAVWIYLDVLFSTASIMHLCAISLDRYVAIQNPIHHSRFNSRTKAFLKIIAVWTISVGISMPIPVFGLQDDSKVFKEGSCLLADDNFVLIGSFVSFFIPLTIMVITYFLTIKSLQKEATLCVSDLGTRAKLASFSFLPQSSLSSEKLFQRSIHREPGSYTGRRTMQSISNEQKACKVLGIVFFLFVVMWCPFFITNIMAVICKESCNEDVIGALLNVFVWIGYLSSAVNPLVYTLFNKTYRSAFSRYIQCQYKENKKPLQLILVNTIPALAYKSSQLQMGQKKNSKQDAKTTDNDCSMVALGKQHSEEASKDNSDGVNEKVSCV
Experiment: 5-HT2A antagonist Ca2+ assay in CHO-K1 cells (method A aequorin luminescence / method B FLIPR fluorescence)
Format: cell-based
Conditions: antagonist mode vs EC80 of reference agonist, method A or B, read-out: 5HT2A IC50
Give bare numbers, in nM.

c1ccc2c(c1)CCC1(CCN(CC3Cc4cccnc4C3)CC1)O2 (stereo not drawn) [Example 411]; 1200

Provide reported IC50 for each item, in the same order as listed.
1. c1ccc(OC2CCN(CCO[C@@H]3CCc4ccccc43)CC2)cc1 [Example 218]
2. Fc1ccc(O[C@H]2CCN(CC3CCc4cnccc43)C2)cc1 (stereo partly drawn) [Example 2]
3. Fc1ccc(OC2CCN(CC3COCc4ccccc43)CC2)cc1 (stereo not drawn) [Example 160]
4. O=C1Nc2ccccc2CC12CCN(C[C@@H](O)COc1ccccc1)CC2 [Example 446]
5. COc1ccccc1O[C@H]1CCN(CC2Cc3ccccc3C2)[C@H](C)C1 [Example 141]

**A:**
[440, 1250, 130, 610, 200]

====

Biological target: recombinant human serotonin receptor 5-HT2A (Homo sapiens, UniProt P28223)
Construct: expressed in transfected cells; method B: loaded with Ca2+ dye
Test: 5-HT2A antagonist Ca2+ assay in CHO-K1 cells (method A aequorin luminescence / method B FLIPR fluorescence)
Format: cell-based
Conditions: antagonist mode vs EC80 of reference agonist, method A or B, read-out: 5HT2A IC50
pIC50: −log10 of the molar value.
Would you mind labelling by pIC50? At or over 6 is yes (1), under is no (0).

Record excerpt, results attached:
N#Cc1ccc(OC2CCN(CC3Cc4cccnc4C3)CC2)cc1 (stereo not drawn) [Example 156]; no (0)
Fc1ccc(OC2COCCN(CC3CCc4ccccc43)C2)cc1 (stereo not drawn) [Example 276]; yes (1)
COc1ccccc1OC1CCN(CC2COc3ccccc32)CC1 (stereo not drawn) [Example 130]; no (0)
CCC(=O)c1ccc(OCC(O)CN2CCN(c3ccccc3)CC2)cc1 (stereo not drawn) [Example 88]; yes (1)
OC(COC1CCCCC1)CN1CCC2(CCN(c3ccccc3)C2)C1 (stereo not drawn) [Example 344]; yes (1)
O=C1c2ccccc2CCN1CCCN1CCC(Oc2ccc(F)cc2)CC1 [Example 222]; yes (1)
CN1Cc2ccccc2C(CCN2CCC(Oc3ccc(F)cc3)CC2)C1 (stereo not drawn) [Example 180]; yes (1)
c1ccc2c(c1)CCC1(CCN(CC3COCc4ccccc43)CC1)O2 (stereo not drawn) [Example 414]; yes (1)

Pending compound:
**Q:** Reported pIC50 at or above 6? c1ccc(N2C[C@@H]3C[C@H]2CCN3CC2COCc3ccccc32)cc1 (stereo partly drawn) [Example 322]
**A:** no (0)

====

Molecular target: recombinant human serotonin receptor 5-HT2A (Homo sapiens, UniProt P28223)
Construct: expressed in transfected cells; method B: loaded with Ca2+ dye
Experiment: 5-HT2A antagonist Ca2+ assay in CHO-K1 cells (method A aequorin luminescence / method B FLIPR fluorescence)
Type: cell-based
Details: antagonist mode vs EC80 of reference agonist, method A or B, read-out: 5HT2A IC50
Rule: IC50 below 0.2 µM gives yes (1), anything at or above gives no (0).

**Q:** State whether 0.2 µM exceeds IC50 recorded for O[C@H](COC1CCCCC1)CN1C[C@H]2CC[C@@H](C1)N2c1ccccc1 .
**A:** no (0)

**Q:** State whether 0.2 µM exceeds IC50 recorded for c1ccc2c(c1)CC(CN1CCC3(CC1)Cc1ccccc1O3)C2 .
**A:** yes (1)

**Q:** State whether 0.2 µM exceeds IC50 recorded for COc1ccccc1CCN1CCC2(CCc3ccccc3O2)CC1 .
**A:** yes (1)

**Q:** State whether 0.2 µM exceeds IC50 recorded for COc1ccc2c(c1)C(CN1CCC(OCc3ccc(F)cc3)CC1)CC2 (stereo not drawn) .
**A:** yes (1)

**Q:** State whether 0.2 µM exceeds IC50 recorded for CN1CCN(CC2CCc3ccccc32)CC(Oc2ccc(F)cc2)C1 (stereo not drawn) .
**A:** yes (1)

**Q:** State whether 0.2 µM exceeds IC50 recorded for O=C1CC2(CCN(CC3CCc4ccccc43)C2)Oc2ccccc21 (stereo not drawn) .
**A:** no (0)

**Q:** State whether 0.2 µM exceeds IC50 recorded for c1ccc([C@@H]2COC3(CCN(C[C@@H]4CCc5ccccc54)CC3)C2)cc1 (single isomer, unassigned) .
**A:** yes (1)

**Q:** State whether 0.2 µM exceeds IC50 recorded for COc1ccc2c(c1)C(CN1CCC(Oc3ccc(C#N)cc3)CC1)CC2 (stereo not drawn) .
**A:** no (0)

**Q:** State whether 0.2 µM exceeds IC50 recorded for OC(COC1CCCCC1)CN1C[C@@H]2C[C@H](C1)N(c1ccccc1)C2 (stereo partly drawn) .
**A:** no (0)

**Q:** State whether 0.2 µM exceeds IC50 recorded for Fc1ccc(O[C@@H]2CCCN(CC3CCc4ccccc43)C2)cc1 (stereo partly drawn) .
**A:** no (0)

**Q:** State whether 0.2 µM exceeds IC50 recorded for c1cnc(OC2CCN(CC3Cc4cccnc4C3)CC2)nc1 (stereo not drawn) .
**A:** no (0)

**Q:** State whether 0.2 µM exceeds IC50 recorded for OC(COc1ccccc1)CN1C[C@H]2CC[C@@H](C1)N2c1ccccc1 (stereo partly drawn) .
**A:** no (0)

**Q:** State whether 0.2 µM exceeds IC50 recorded for c1ccc(CCN2C[C@@H]3C[C@H](C2)N(c2ccccc2)C3)cc1 .
**A:** no (0)

**Q:** State whether 0.2 µM exceeds IC50 recorded for c1ccc2c(c1)CCC1(CCN(CCO[C@H]3CCc4ccccc43)CC1)O2 .
**A:** yes (1)

**Q:** State whether 0.2 µM exceeds IC50 recorded for c1ccc2c(c1)CC1(CCN(CC3CCc4ccccc43)CC1)CO2 (stereo not drawn) .
**A:** no (0)

**Q:** State whether 0.2 µM exceeds IC50 recorded for OC(CO[C@@H]1CCCc2ccccc21)CN1CC[C@H](Oc2ccc(F)cc2)C1 (stereo partly drawn) .
**A:** no (0)

**Q:** State whether 0.2 µM exceeds IC50 recorded for COc1ccc2c(c1)C(CN1CCC[C@@H](Oc3ccc(F)cc3)C1)CC2 (stereo partly drawn) .
**A:** no (0)

**Q:** State whether 0.2 µM exceeds IC50 recorded for OC1(c2ccccc2)COC2(CCN(CC3CCc4ccccc43)CC2)C1 (stereo not drawn) .
**A:** no (0)
